Assay: Drug repurposing screens with cells derived from glioblastoma tumor samples (AID 1345199); note: % is set by controls: 0 for no effect and ±100 for the full control effect
Settings: GBM patient neurospheres viability, ATP luminescence, 48 h; at 46 µM (top of the series); tumour line A
Results filed as inconclusive are left out.
metric: activity, negative = cell killing (%)
Numeric only. Scale: %

| structure.string | metric | test.value |
| --- | --- | --- |
| CCOC(=O)[C@H](CCc1ccccc1)N[C@@H](C)C(=O)N1[C@H](C(=O)O)C[C@H]2CCCC[C@@H]21 | activity, negative = cell killing | -15.6 |
| C[C@@H](O)[C@H]1C(=O)N2C(C(=O)O)=C(S[C@@H]3CN[C@H](CNS(N)(=O)=O)C3)[C@H](C)[C@H]12 | activity, negative = cell killing | -14.9 |
| O=C(O)P(=O)(O)O | activity, negative = cell killing | -23.7 |

Quick note, activity, negative = cell killing for CN1CCN(c2cc3c(cc2F)c(=O)c(C(=O)O)cn3-c2ccc(F)cc2)CC1 landed at -26.7

Quick note, activity, negative = cell killing for O=C(Nc1cccc(C2=NCCN2)c1)Nc1cccc(C2=NCCN2)c1 landed at 2.01

Quick note, activity, negative = cell killing for CCN1CCN(C(=O)N[C@@H](C(=O)N[C@@H]2C(=O)N3C(C(=O)O)=C(CSc4nnnn4C)CS[C@H]23)c2ccc(O)cc2)C(=O)C1=O landed at -15

Quick note, activity, negative = cell killing for OCc1ccccn1 landed at -24
